molecular target: human P450 1B1 (Homo sapiens, UniProt Q16678); assay: Spectral binding titration; settings: purified P450 1B1 1.0 μM; ND = not detected at 100 μM
Sequence (Q16678 whole entry): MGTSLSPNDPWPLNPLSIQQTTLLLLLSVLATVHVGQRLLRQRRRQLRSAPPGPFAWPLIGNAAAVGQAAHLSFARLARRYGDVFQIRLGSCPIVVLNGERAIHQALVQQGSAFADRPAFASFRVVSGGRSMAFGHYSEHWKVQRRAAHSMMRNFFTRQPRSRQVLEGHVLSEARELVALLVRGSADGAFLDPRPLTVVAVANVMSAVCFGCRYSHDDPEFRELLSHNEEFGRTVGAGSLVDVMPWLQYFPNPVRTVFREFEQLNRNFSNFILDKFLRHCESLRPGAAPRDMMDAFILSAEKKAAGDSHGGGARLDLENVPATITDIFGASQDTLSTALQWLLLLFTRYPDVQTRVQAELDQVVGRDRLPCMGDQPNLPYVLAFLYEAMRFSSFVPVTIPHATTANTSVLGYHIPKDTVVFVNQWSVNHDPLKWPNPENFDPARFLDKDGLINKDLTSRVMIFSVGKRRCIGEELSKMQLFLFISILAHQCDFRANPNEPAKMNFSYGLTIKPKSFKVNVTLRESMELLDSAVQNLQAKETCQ
metric: Reverse Type I spectra ΔAmax/Ks (magnitude of spectral binding)
Write no unit; give the number alone.

Reference set (5 entries):
>>> print(df.to_string())
                                   compound     val
0  C[C@]12CC[C@@H]3c4ccc(O)cc4CC[C@H]3[C@@H]1CC[C@@H]2O [E2, 17β-estradiol, reference compound]  0.0005
1                CC#Cc1ccc2c(ccc3ccccc32)c1  0.0305
2  O=c1cc(-c2ccccc2)oc2ccc3ccccc3c12 [BNF, β–naphthoflavone, reference compound]  0.0061
3                    C#Cc1ccc(-c2ccccc2)cc1  0.0030
4                  CC#Cc1ccc2ccc3ccccc3c2c1  0.0194

// Reverse Type I spectra ΔAmax/Ks (magnitude of spectral binding) lookup, compound = C#Cc1cc2cccc3ccc4cccc1c4c32 , result: 0.0130

// Reverse Type I spectra ΔAmax/Ks (magnitude of spectral binding) lookup, compound = C#Cc1ccc2c(ccc3ccccc32)c1 , result: 0.0190

----------
target: UniProt Q16678; test: Spectral binding titration
Entries whose Kd is below 30 µM take Y; entries at or above 30 µM take N.

>>> print(df.to_string())
                                   compound  category
0  COc1cccc(-c2cc(=O)c3ccc(O)c(O)c3o2)c1 [3M78DHF, 3′-methoxy-7,8-dihydroxyflavone]         N
1  COc1cccc(-c2cc(=O)c3ccccc3o2)c1 [3MF, 3′-methoxyflavone]         N
2  c1ccc(-c2ccccc2)cc1 [biphenyl, reference compound]         N
3  COc1ccccc1-c1cc(=O)c2ccccc2o1 [2MF, 2′-methoxyflavone]         N
4  Oc1cc(O)cc(/C=C/c2ccc(O)c(O)c2)c1 [Piceatannol (Pice), Piceatannol, reference compound]         Y

[in] # check: Kd < 30 µM for COc1ccc(-c2cc(=O)c3ccccc3o2)cc1 [4MF, 4′-methoxyflavone]
[out] N

[in] # check: Kd < 30 µM for c1ccc2c(c1)ccc1ccccc12 [Phenanthrene, phenanthrene, reference compound]
[out] Y

[in] # check: Kd < 30 µM for Oc1ccc(/C=C/c2cc(O)cc(O)c2)cc1 [resveratrol (Res), resveratrol, reference compound]
[out] Y

[in] # check: Kd < 30 µM for COc1ccc(-c2cc(=O)c3c(O)cc(O)cc3o2)cc1OC [34DM57DHF, 3′,4′-dimethoxy-5,7-dihydroxyflavone]
[out] Y

----------
A collection of compounds and their measured Reverse Type I spectra ΔAmax/Ks (magnitude of spectral binding)
target: UniProt Q16678; assay: Spectral binding titration; conditions: purified P450 1B1 1.0 μM; ND = not detected at 100 μM
Write no unit; give the number alone.

Reference set (8 entries):
In [3]: df
Out[3]:
                                   compound     val
0  COc1cccc(-c2cc(=O)c3ccc(O)c(O)c3o2)c1 [3M78DHF, 3′-methoxy-7,8-dihydroxyflavone]  0.0003
1  c1cc2ccc3cccc4ccc(c1)c2c34 [pyrene, reference compound]  0.0338
2  c1ccc2c(c1)ccc1ccccc12 [Phenanthrene, phenanthrene, reference compound]  0.0031
3  O=c1cc(-c2ccccc2)oc2c1ccc1ccccc12 [ANF, α-naphthoflavone, reference compound]  0.0061
4                    C#CCOc1ccccc1-c1ccccc1  0.0010
5  COc1ccccc1-c1cc(=O)c2c(O)cc(O)cc2o1 [2M57DHF, 2′-methoxy-5,7-dihydroxyflavone]  0.0016
6                   C#Cc1cc2ccccc2c2ccccc12  0.0197
7           C#CCOc1ccc(-c2ccc(OCC#C)cc2)cc1  0.0013

Summary: COc1ccc(-c2cc(=O)c3ccc(O)c(O)c3o2)cc1OC [34DM78DHF, 3′,4′-dimethoxy-7,8-dihydroxyflavone] , UniProt Q16678, Reverse Type I spectra ΔAmax/Ks (magnitude of spectral binding) = 0.0003

Summary: C#Cc1ccc2ccc3ccccc3c2c1 , UniProt Q16678, Reverse Type I spectra ΔAmax/Ks (magnitude of spectral binding) = 0.0237

Summary: C#Cc1ccc2ccccc2c1 , UniProt Q16678, Reverse Type I spectra ΔAmax/Ks (magnitude of spectral binding) = 0.0033

Summary: C#Cc1ccc2ccc3cccc4ccc1c2c34 , UniProt Q16678, Reverse Type I spectra ΔAmax/Ks (magnitude of spectral binding) = 0.0169

Summary: C#CCOc1ccc(-c2ccccc2)cc1 , UniProt Q16678, Reverse Type I spectra ΔAmax/Ks (magnitude of spectral binding) = 0.0007

Summary: COc1ccc(-c2cc(=O)c3c(O)cc(O)cc3o2)cc1OC [34DM57DHF, 3′,4′-dimethoxy-5,7-dihydroxyflavone] , UniProt Q16678, Reverse Type I spectra ΔAmax/Ks (magnitude of spectral binding) = 0.0180

Summary: C#CCOc1ccccc1-c1ccccc1OCC#C , UniProt Q16678, Reverse Type I spectra ΔAmax/Ks (magnitude of spectral binding) = 0.0006

Summary: COc1ccccc1-c1cc(=O)c2ccccc2o1 , UniProt Q16678, Reverse Type I spectra ΔAmax/Ks (magnitude of spectral binding) = 0.0013

Summary: COc1cc(C=Cc2ccc(OC)cc2OC)cc(OC)c1 [TMS, 2,4,3′,5′-tetramethoxystilbene, reference compound] , UniProt Q16678, Reverse Type I spectra ΔAmax/Ks (magnitude of spectral binding) = 0.0110
